We begin with a simple list: items and their reported koff.
Molecular target: T1, Human IGF-I R (Glu 31-Asn 932 with a polyhistidine tag at the C-terminus) (human, UniProt P08069 31-932)
T1 construct: range 31-932; Bought protein; captured on Ni-NTA biosensors for BLI; also called IGF1R; IGF-1R; not shown: C-terminal polyhistidine tag
T1 sequence (P08069 31-932 limits assumed): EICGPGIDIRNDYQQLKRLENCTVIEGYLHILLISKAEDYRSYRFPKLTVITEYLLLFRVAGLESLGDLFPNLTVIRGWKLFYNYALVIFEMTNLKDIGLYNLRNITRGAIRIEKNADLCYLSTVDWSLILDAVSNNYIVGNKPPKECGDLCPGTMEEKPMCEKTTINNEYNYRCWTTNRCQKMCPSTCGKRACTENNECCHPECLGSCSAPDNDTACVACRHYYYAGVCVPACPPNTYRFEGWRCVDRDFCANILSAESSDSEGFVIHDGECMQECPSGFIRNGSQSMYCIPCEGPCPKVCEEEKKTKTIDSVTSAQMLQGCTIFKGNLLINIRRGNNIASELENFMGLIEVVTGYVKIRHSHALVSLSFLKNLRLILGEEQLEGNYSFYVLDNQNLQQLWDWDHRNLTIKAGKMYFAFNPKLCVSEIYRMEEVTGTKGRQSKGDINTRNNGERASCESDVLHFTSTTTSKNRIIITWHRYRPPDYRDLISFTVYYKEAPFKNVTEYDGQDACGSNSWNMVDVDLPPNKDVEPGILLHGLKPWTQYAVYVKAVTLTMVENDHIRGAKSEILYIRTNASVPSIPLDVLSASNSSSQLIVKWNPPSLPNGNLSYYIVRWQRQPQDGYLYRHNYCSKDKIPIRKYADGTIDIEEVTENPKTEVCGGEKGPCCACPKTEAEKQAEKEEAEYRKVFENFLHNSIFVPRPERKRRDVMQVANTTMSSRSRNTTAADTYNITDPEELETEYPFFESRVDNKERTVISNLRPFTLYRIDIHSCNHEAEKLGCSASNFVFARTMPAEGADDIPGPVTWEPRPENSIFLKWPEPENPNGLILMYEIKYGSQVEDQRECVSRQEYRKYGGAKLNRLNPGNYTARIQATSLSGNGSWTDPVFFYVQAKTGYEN
Experiment: BLI (Octet RED96e), His-tagged IGF-1R on Ni-NTA sensors, Fab 0-100 nM, 1:1 global fit
Only the number, expressed in s⁻¹, is required.

| BINDER | ASSAY_RESULT |
| --- | --- |
| D03 Fab (Fab, V domains shown, also called clone D03) VH: QVELVESGGGVVQPGRSQRLSCAASGFTFSSHGMHWVRQAPGKGLEWVAYIWFDGSSTYYADSVRGRFTISRDNSKNTLYLQMNSLRAEDTAVYFCARELGRRYFDLWGRGTLVSVSS VL: EIVLTQSPATLSLSPGERATLSCRASQSVSSALAWYQQKPGQAPRLLIYDASKRATGIPARFSGSGSGTDFTLTISSLEPEDFAVYYCQQRSKYPPWTFGQGTKVESK | 0.000603 |

Asked: koff lookup needed for B02 Fab (Fab, V domains shown) VH: QVELVESGGGVVQPGRSQRLSCAASGFTFSSTGMHWVRQAPGKGLEWVAYIWFDGSSTYYADSVRGRFTISRDNSKNTLYLQMNSLRAEDTAVYFCARELNRRYFDLWGRGTLVSVSS VL: EIVLTQSPATLSLSPGERATLSCRASQSVSSYLAWYQQKPGQAPRLLIYDASKRATGIPARFSGSGSGTDFTLTISSLEPEDFAVYYCQQRSKYPPWTFGQGTKVESK , thanks.
Given back: 0.00125
